# experimental-system: androgen receptor (adenovirus AdEasy+rAR in L929 cells) (Rattus norvegicus, UniProt P15207)
# Construct: expressed in transfected cells
# Sequence (P15207 whole entry S389L): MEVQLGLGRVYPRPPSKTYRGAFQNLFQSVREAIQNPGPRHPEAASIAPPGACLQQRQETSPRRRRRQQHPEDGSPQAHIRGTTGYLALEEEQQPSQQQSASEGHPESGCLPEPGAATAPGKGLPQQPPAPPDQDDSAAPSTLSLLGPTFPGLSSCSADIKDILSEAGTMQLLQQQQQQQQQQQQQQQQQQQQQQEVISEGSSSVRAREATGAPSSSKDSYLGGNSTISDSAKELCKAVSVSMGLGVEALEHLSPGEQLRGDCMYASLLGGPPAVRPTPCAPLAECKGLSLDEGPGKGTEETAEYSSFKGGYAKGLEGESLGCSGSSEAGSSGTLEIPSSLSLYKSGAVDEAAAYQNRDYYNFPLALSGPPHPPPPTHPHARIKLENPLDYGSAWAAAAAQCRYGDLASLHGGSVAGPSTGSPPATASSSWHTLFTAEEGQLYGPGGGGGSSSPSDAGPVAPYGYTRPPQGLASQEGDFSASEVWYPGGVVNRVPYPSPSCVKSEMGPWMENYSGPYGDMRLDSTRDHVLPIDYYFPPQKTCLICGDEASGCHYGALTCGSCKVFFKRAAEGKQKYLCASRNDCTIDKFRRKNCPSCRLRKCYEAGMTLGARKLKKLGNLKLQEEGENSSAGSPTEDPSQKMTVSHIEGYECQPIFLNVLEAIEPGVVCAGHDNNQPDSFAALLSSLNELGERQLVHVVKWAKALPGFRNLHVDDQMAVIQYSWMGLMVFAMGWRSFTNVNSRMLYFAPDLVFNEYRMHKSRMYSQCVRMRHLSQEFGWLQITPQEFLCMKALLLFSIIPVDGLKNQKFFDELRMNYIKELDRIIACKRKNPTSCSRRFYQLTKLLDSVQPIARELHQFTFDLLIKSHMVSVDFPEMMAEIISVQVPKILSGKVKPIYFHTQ
# experiment-description: L929 Androgen Receptor Functional Assay, Adenovirus Transduction
# Assay type: cell-based
# measurement-context: L929 agonist testing; 3000 nM
metric-name: % Activity (%)
Output spec: scalar in %, unitless text.

Incoming: Consider the compound CC(O)(CSCc1cccs1)c1cc2cc([N+](=O)[O-])c(C(F)(F)F)cc2[nH]1 (stereo not shown) and give its measured % Activity.
Outgoing: 2

Incoming: Lookup CCSCC(C)(O)c1[nH]c2cc(C(F)(F)F)c(Br)cc2c1C (stereo not shown)
Outgoing: −3

Incoming: Lookup CC(O)(C[S+]([O-])Cc1ccccc1)c1cc2cc([N+](=O)[O-])c(C(F)(F)F)cc2[nH]1 (mixture of isomers)
Outgoing: 2

Incoming: Lookup CSCC(C)(O)c1cc2cc(C#N)c(C(F)(F)F)cc2[nH]1 (stereo not shown)
Outgoing: 0
